Listed next: entries and their corresponding pEC50.
# assay-procedure: Induction of human IkappaBalpha stabilization in OCI-Ly3 cells by green light emiting IkappaBalpha-fused luciferase reporter gene assay
# pEC50 is unitless: minus log10 of the molar concentration; print number only

Recorded pEC50, per entry:
O=S1(=O)Nc2c(ccc3cccnc23)-c2ccccc21 : 5.66
Cc1ccc([N+](=O)[O-])cc1S(=O)(=O)Nc1cccc2cccnc12 : 6.00
Cc1ccc2cccc(NS(=O)(=O)c3ccc(Br)s3)c2n1 : 5.21
COc1cc(NS(=O)(=O)c2ccc(C)cc2N)c2nc(C)ccc2c1 : 5.03
Cc1ccc2cccc(NS(=O)(=O)c3ccc(C(F)(F)F)cc3[N+](=O)[O-])c2n1 : 5.00

### Prompt # get_value(readout='pEC50', item= COc1cc(NS(=O)(=O)c2ccc(C)cc2N)c2ncccc2c1 )
### Response 5.40

### Prompt # get_value(readout='pEC50', item= Cc1ccc2ccc3c(c2n1)NS(=O)(=O)c1ccc(O)cc1-3 )
### Response 5.10

### Prompt # get_value(readout='pEC50', item= COc1ccc2c(c1)-c1ccc3cccnc3c1NS2(=O)=O )
### Response 5.89
